measured-quantity: MIC

q: Find the measured MIC of CC[C@H](C)[C@H](NC(=O)[C@H](CCCN=C(N)N)NC(=O)[C@H](C)NC(=O)[C@H](C)N)C(=O)N[C@H](C(=O)N[C@@H](CC(C)C)C(=O)N[C@@H](CCCN=C(N)N)C(=O)N[C@@H](Cc1c[nH]c2ccccc12)C(=O)N[C@@H](CCCN=C(N)N)C(=O)N[C@@H](Cc1ccccc1)C(=O)N[C@@H](CCCN=C(N)N)C(N)=O)[C@@H](C)CC with Salmonella enterica subsp. enterica serovar Typhimurium ATCC 14028 as test system.
a: 2 µM

q: Find the measured MIC of CC(C)C[C@H](NC(=O)[C@H](CCCN=C(N)N)NC(=O)[C@H](CCCN=C(N)N)NC(=O)[C@H](C)NC(=O)[C@H](Cc1c[nH]c2ccccc12)NC(=O)CNC(=O)[C@H](CCCN=C(N)N)NC(=O)[C@@H](N)CCCN=C(N)N)C(=O)N[C@@H](C)C(=O)N[C@@H](C)C(=O)N[C@@H](C)C(=O)N[C@@H](Cc1ccc(O)cc1)C(=O)NCC(=O)N[C@@H](CCCN=C(N)N)C(=O)N[C@@H](CCCN=C(N)N)C(N)=O with Salmonella enterica subsp. enterica serovar Typhimurium ATCC 14028 as test system.
a: > 30 µM

q: Find the measured MIC of CC[C@H](C)[C@H](NC(=O)CNC(=O)[C@@H](N)Cc1c[nH]c2ccccc12)C(=O)N[C@@H](CCCN=C(N)N)C(=O)N[C@@H](CC(=O)O)C(=O)N[C@H](C(=O)N[C@@H](CC(C)C)C(=O)N[C@@H](CCCCN)C(=O)N[C@@H](Cc1ccc(O)cc1)C(=O)NCC(=O)N[C@@H](CCCCN)C(=O)N1CCC[C@H]1C(=O)N[C@@H](CO)C(=O)O)[C@@H](C)CC with Salmonella enterica subsp. enterica serovar Typhimurium ATCC 14028 as test system.
a: 8 µM

---

tested on: Salmonella typhimurium KCTC 1926; assay: ≥ marks a high value that may be exact or a test limit, other limits are often not marked, values filed in µg/mL are converted to µM
measured-quantity: MIC (µM)
Give the quantity in µM, number only.

q: Provide one value: measured MIC of CC(C)C[C@H](NC(=O)[C@H](Cc1ccccc1)NC(=O)[C@H](CCCN=C(N)N)NC(=O)[C@H](CCCCN)NC(=O)[C@H](Cc1c[nH]c2ccccc12)NC(=O)[C@H](CCCN=C(N)N)NC(=O)[C@H](CCC(N)=O)NC(=O)[C@@H](NC(=O)[C@H](Cc1c[nH]c2ccccc12)NC(=O)[C@H](CCCN=C(N)N)NC(=O)[C@H](CCCCN)NC(=O)[C@@H](N)Cc1ccccc1)C(C)C)C(=O)N[C@@H](CCCN=C(N)N)C(N)=O [FKRWVQRWKRFLR]
a: 2

q: Provide one value: measured MIC of CC(C)C[C@H](NC(=O)[C@H](Cc1c[nH]c2ccccc12)NC(=O)[C@H](CCCNC(=N)N)NC(=O)[C@H](CCCNC(=N)N)NC(=O)[C@H](Cc1c[nH]c2ccccc12)NC(=O)[C@H](CCCNC(=N)N)NC(=O)[C@H](CCCNC(=N)N)NC(=O)[C@H](Cc1c[nH]c2ccccc12)NC(=O)[C@H](CC(C)C)NC(=O)[C@@H](N)CCCNC(=N)N)C(=O)N[C@@H](CCCNC(=N)N)C(=O)O [RLWRRWRRWLR]
a: 2

---

test system: Pseudomonas aeruginosa ATCC 9027; assay: ≥ marks a high value that may be exact or a test limit, other limits are often not marked, values filed in µg/mL are converted to µM
measured-quantity: MIC (µM)
Give the quantity in µM, number only.

q: Provide one value: measured MIC of CC[C@H](C)[C@H](NC(=O)CNC(=O)[C@H](CCCN=C(N)N)NC(=O)[C@@H](NC(=O)[C@H](CC(C)C)NC(=O)[C@H](CO)NC(=O)CNC(=O)[C@@H](NC(=O)[C@@H](N)CC(C)C)[C@@H](C)CC)C(C)C)C(=O)N[C@@H](CC(C)C)C(=O)N1CCC[C@H]1C(=O)N[C@@H](CC(C)C)C(=O)N[C@@H](Cc1ccccc1)C(N)=O
a: 183

q: Provide one value: measured MIC of CC[C@H](C)[C@H](NC(=O)[C@H](CCCCN)NC(=O)[C@H](CCCCN)NC(=O)[C@H](C)NC(=O)[C@@H](NC(=O)[C@H](C)NC(=O)[C@H](CC(C)C)NC(=O)[C@H](CC(C)C)NC(=O)[C@H](C)NC(=O)[C@H](CCCCN)NC(=O)[C@H](CC(C)C)NC(=O)[C@H](CC(N)=O)NC(=O)[C@H](C)N)C(C)C)C(=O)N[C@@H](CC(C)C)C(N)=O
a: 16

---

Give measured MIC for each item. Keep answers brief.
system: Pseudomonas aeruginosa KCTC 1637; test: ≥ marks a high value that may be exact or a test limit, other limits are often not marked, values filed in µg/mL are converted to µM

q: Provide one value: measured MIC of NCCCC[C@H](NC(=O)[C@H](Cc1c[nH]c2ccccc12)NC(=O)[C@@H](N)CCCCN)C(=O)N[C@@H](Cc1c[nH]c2ccccc12)C(N)=O
a: ≥ 200 µM

q: Provide one value: measured MIC of CC(C)C[C@H](NC(=O)[C@H](Cc1c[nH]c2ccccc12)NC(=O)[C@H](CCCNC(=N)N)NC(=O)[C@H](CCCNC(=N)N)NC(=O)[C@H](Cc1c[nH]c2ccccc12)NC(=O)[C@H](CCCNC(=N)N)NC(=O)[C@H](CCCNC(=N)N)NC(=O)[C@H](Cc1c[nH]c2ccccc12)NC(=O)[C@H](CC(C)C)NC(=O)[C@@H](N)CCCNC(=N)N)C(=O)N[C@@H](CCCNC(=N)N)C(=O)O
a: 8 µM

---

Entries with reported log10 MIC on Staphylococcus aureus ATCC 29213
A difference of one corresponds to tenfold MIC; all values are log10 with MIC in µM.

q: Provide one value: measured log10 MIC of CC(C)C[C@H](NC(=O)[C@H](CCCN=C(N)N)NC(=O)[C@H](CC(C)C)NC(=O)[C@H](CC(C)C)NC(=O)[C@H](CC(C)C)NC(=O)[C@H](CCCN=C(N)N)NC(=O)[C@H](CC(C)C)NC(=O)[C@H](CCCN=C(N)N)NC(=O)[C@@H](N)CCCN=C(N)N)C(=O)N[C@@H](CCCN=C(N)N)C(=O)N[C@@H](CCCN=C(N)N)C(N)=O [RRLRLLLRLRR]
a: 1.20

q: Provide one value: measured log10 MIC of CC[C@H](C)[C@H](NC(=O)[C@H](CCCN=C(N)N)NC(=O)[C@H](CCSC)NC(=O)[C@H](C)NC(=O)[C@H](CCCN=C(N)N)NC(=O)CNC(=O)[C@H](C)NC(=O)[C@@H](NC(=O)[C@@H](N)CO)C(C)C)C(=O)NCC(=O)N[C@@H](CC(C)C)C(=O)N[C@@H](CCCN=C(N)N)C(=O)N[C@@H](Cc1ccccc1)C(=O)N[C@H](C(=O)N[C@@H](CC(C)C)C(=O)N[C@@H](CCSC)C(=O)O)C(C)C [SVAGRAMRIGLRFVLM]
a: 1.56

q: Provide one value: measured log10 MIC of C[C@H](N)C(=O)N[C@@H](CC(=O)O)C(=O)N[C@@H](C)C(=O)N[C@@H](CC(=O)O)C(=O)N[C@@H](CC(=O)O)C(=O)N[C@@H](CC(=O)O)C(=O)N[C@@H](CC(=O)O)C(=O)N[C@@H](CC(=O)O)C(=O)N[C@@H](CCCCN)C(=O)O [ADADDDDDK]
a: 3.26

q: Provide one value: measured log10 MIC of CC(C)C[C@H](NC(=O)[C@H](CCCN=C(N)N)NC(=O)[C@H](CCCN=C(N)N)NC(=O)[C@H](CC(C)C)NC(=O)[C@H](CCCN=C(N)N)NC(=O)[C@H](CCCN=C(N)N)NC(=O)[C@H](CCCN=C(N)N)NC(=O)[C@H](Cc1c[nH]c2ccccc12)NC(=O)[C@H](CCCN=C(N)N)NC(=O)[C@H](CCCN=C(N)N)NC(=O)[C@H](CCCN=C(N)N)NC(=O)[C@H](CC(C)C)NC(=O)[C@H](CCCN=C(N)N)NC(=O)[C@H](CCCN=C(N)N)NC(=O)[C@@H](N)CC(C)C)C(N)=O [LRRLRRRWRRRLRRL]
a: 0.86

q: Provide one value: measured log10 MIC of CC(=O)N[C@@H](CCCCN)C(=O)N[C@@H](CC(C)C)C(=O)N1CCC[C@H]1C(=O)N[C@@H](CCCCN)C(=O)N[C@@H](CC(C)C)C(=O)N[C@@H](CC(C)C)C(=O)N[C@@H](CCCCN)C(=O)N[C@@H](CCCCN)C(=O)N[C@@H](CC(C)C)C(=O)N[C@@H](CC(C)C)C(=O)N[C@@H](CCCCN)C(=O)N[C@@H](CC(C)C)C(=O)N[C@@H](CC(C)C)C(=O)N[C@@H](CCCCN)C(N)=O [KLPKLLKKLLKLLK]
a: 1.00
